Target: AT2 Receptor (AT2R) (Homo sapiens (Human), UniProt P50052)
Sequence (P50052 whole entry): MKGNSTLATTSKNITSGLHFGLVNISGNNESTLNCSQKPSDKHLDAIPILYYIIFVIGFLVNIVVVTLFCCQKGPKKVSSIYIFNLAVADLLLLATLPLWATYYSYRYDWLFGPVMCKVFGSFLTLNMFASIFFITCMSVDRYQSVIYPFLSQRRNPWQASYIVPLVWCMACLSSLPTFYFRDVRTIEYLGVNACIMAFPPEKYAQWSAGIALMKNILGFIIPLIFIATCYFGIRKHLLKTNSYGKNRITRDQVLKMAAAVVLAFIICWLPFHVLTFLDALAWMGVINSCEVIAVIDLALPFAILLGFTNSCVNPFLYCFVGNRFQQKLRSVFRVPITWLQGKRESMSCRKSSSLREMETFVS
Binning of IC50 into classes: Low (below 10 nM), Mid (10 nM to below 40 nM), High (40 nM or more)

* CN(Cc1ccccc1)C(=O)N1[C@H]2CC[C@@H]1[C@@H](C(=O)O)N(C(=O)N(c1ccc(F)cc1)c1ccc(F)cc1)C2 [Compound C129] | High
* O=C(O)[C@@H]1[C@H]2CC[C@@H](CN1C(=O)N(c1ccccc1)c1ccccc1)N2C(=O)N(Cc1ccccc1)C1CC1 [Compound C153] | Low
* O=C(O)[C@H]1[C@@H]2CC[C@H](CN1C(=O)OCc1ccccc1)N2C(=O)C(c1ccccc1)c1ccccc1 [Compound C75] | High
* C[C@H](c1ccccc1)N(C)C(=O)N1[C@H]2CC[C@@H]1[C@@H](C(=O)O)N(C(=O)N(c1ccccc1)c1ccccc1)C2 [Compound C226] | Mid
* O=C(O)[C@@H]1[C@H]2CC[C@@H](CN1C(=O)N(c1ccccc1)c1ccccc1)N2C(=O)Cc1c[nH]c2ccccc12 [Compound C259] | High
* Cc1ccc(CN(C(=O)N2[C@H]3CC[C@@H]2[C@@H](C(=O)O)N(C(=O)N(c2ccccc2)c2ccccc2)C3)C2CC2)s1 [Compound C204] | Low
* O=C(O)[C@H]1[C@@H]2CC[C@H](CN1C(=O)N(c1ccccc1)c1ccccc1)N2C(=O)N(c1ccccc1)c1ccccc1 [Compound C14] | Mid
* CN(Cc1ccccc1Cl)C(=O)N1[C@H]2CC[C@@H]1[C@@H](C(=O)O)N(C(=O)N(c1ccccc1)c1ccccc1)C2 [Compound C149] | Mid
* O=C(O)[C@@H]1[C@H]2CC[C@@H](CN1C(=O)N(c1ccccc1)c1ccccc1)N2C(=O)N(Cc1ccccc1)CC(F)(F)F [Compound C128] | Mid
* O=C(O)[C@@H]1[C@H]2CC[C@@H](CN1C(=O)N(c1ccccc1)c1ccccc1)N2C(=O)N(c1ccc(F)cc1)c1ccc(F)cc1 [Compound C145] | High
* CN(Cc1ccc2cc[nH]c2c1)C(=O)N1[C@H]2CC[C@@H]1[C@@H](C(=O)O)N(C(=O)N(c1ccccc1)c1ccccc1)C2 [Compound C249] | Mid
* O=C(O)[C@@H]1[C@H]2CC[C@@H](CN1C(=O)N1c3ccccc3C=Cc3ccccc31)N2C(=O)C(c1ccccc1)c1ccccc1 [Compound C10] | High
* O=C(O)[C@@H]1[C@H]2CC[C@@H](CN1C(=O)N(c1ccccc1)c1ccccc1)N2C(=O)N(Cc1ccsc1)CC1CC1 [Compound C205] | High
* CCN(Cc1sccc1C)C(=O)N1[C@H]2CC[C@@H]1[C@@H](C(=O)O)N(C(=O)N(c1ccccc1)c1ccccc1)C2 [Compound C272] | Mid
* O=C(O)[C@@H]1[C@H]2CC[C@@H](CN1C(=O)N(c1ccccc1)c1ccccc1)N2C(=O)Oc1ccccc1 [Compound C115] | High
* CN(Cc1ccc2ccccc2n1)C(=O)N1[C@H]2CC[C@@H]1[C@@H](C(=O)O)N(C(=O)N(c1ccccc1)c1ccccc1)C2 [Compound C265] | Mid
* CN(Cc1ccccc1)C(=O)N1[C@H]2CC[C@@H]1[C@@H](C(=O)O)N(C(=O)C(C)(c1ccccc1)c1ccccc1)C2 [Compound C173] | Low
* O=C(O)[C@@H]1[C@H]2CC[C@@H](CN1C(=O)N(c1ccccc1)c1ccccc1)N2C(=O)N(Cc1ccccc1)CC1CC1 [Compound C154] | Mid
* CCN(Cc1ccc(Cl)cc1)C(=O)N1[C@H]2CC[C@@H]1[C@@H](C(=O)O)N(C(=O)N(c1ccccc1)c1ccccc1)C2 [Compound C217] | Low
* CN(Cc1ccc(Cl)nc1)C(=O)N1[C@H]2CC[C@@H]1[C@@H](C(=O)O)N(C(=O)N(c1ccccc1)c1ccccc1)C2 [Compound C255] | Mid
* CN(Cc1ccc(F)cc1)C(=O)N1[C@H]2CC[C@@H]1[C@@H](C(=O)O)N(C(=O)N(c1ccccc1)c1ccccc1)C2 [Compound C161] | Mid
* Cc1ccc(COC(=O)N2[C@H]3CC[C@@H]2[C@@H](C(=O)O)N(C(=O)C(c2ccccc2)c2ccccc2)C3)cc1 [Compound C194] | High
* O=C(O)[C@H]1[C@@H]2CC[C@H](CN1C(=O)C(c1ccccc1)c1ccccc1)N2C(=O)C(c1ccccc1)c1ccccc1 [Compound C2] | Low
* Cc1ccccc1CN(C)C(=O)N1[C@H]2CC[C@@H]1[C@@H](C(=O)O)N(C(=O)N(c1ccccc1)c1ccccc1)C2 [Compound C163] | High
